# System: Chordin-like protein 2 (CHRDL2)
# Experiment: CHRDL2 small-molecule binders, primary screen, biochemical, small-molecule microarray, 635 nm fluorescence (AID 1126);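 note: printed compound slides probed with Chrdl2 protein at 4 µg/mL for 1 h at 4 C; score merges 667 nm emission intensity with signal to noise over three replicate slides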
# Condition Description: small-molecule microarray binding, fluorescence 635 nm; higher = more signal
Please mark 1 if the recorded composite z-score is equal to or greater than 0.5, and 0 if it falls below.

CCc1cc2c(nc1CC)CCN(CCC(C)=NOCC[C@@H]1C=C[C@H](OC(C)=O)[C@@H](COC(C)=O)O1)C2 | 0
COc1ccc(COC(=O)NN=C2C[C@@H](O)[C@@H](O)[C@@H]3[C@@H]4C(=O)N(c5cccc(Oc6ccccc6)c5)C(=O)[C@@H]4CC[C@H]23)cc1 | 0
CCOC(=O)[C@H](Cc1ccccc1)NC(=O)CCC1CC(OC(=O)NCc2cccc3ccccc23)CC2(CCCC(COC(=O)NCC3CCCCC3)O2)O1 (stereo partly drawn) | 1
C[C@@H]1C=CCC(=O)OC[C@H](C)C(=O)N[C@@H](Cc2ccccc2)C(=O)OC1 | 1
COc1ccc2c(c1)O[C@@H](c1cccc(C(F)(F)F)c1)[C@H](O)C2=O | 1
O=C1C=C[C@@H](O)[C@@H]2[C@@H]3C(=O)N(C4CCCCC4)C(=O)[C@@H]3CC[C@@H]12 | 1
C#CCCCON=C1C[C@@H](O)[C@@H](O)[C@@H]2[C@@H]3C(=O)N(C[C@@H]4CCCO4)C(=O)[C@@H]3CC[C@H]12 | 0

Please look at the following compound next.
Data request: Given C[C@H]1CC[C@@H](C(=O)O)N[C@@H]1c1cccc(N2CCCC2=O)c1 , state whether its composite z-score is at least 0.5.
Data returned: 0

###

# Experiment: Plasmodium falciparum growth inhibition, primary screen, strain 3D7, DAPI fluorescence, 100 nL (AID 1184);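 note: parasites grown inside human red blood cells in medium with human serum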
# Condition Description: P. falciparum 3D7 growth, 3 d, higher = more signal
Please mark Fulfilled if the recorded z-score is equal to or greater than -2, and Not fulfilled if it falls below.

CC(C)=CCCC(C)=CCON=C1C[C@@H](O)[C@@H](O)[C@@H]2[C@@H]3C(=O)N(Cc4ccc5c(c4)OCO5)C(=O)[C@@H]3CC[C@H]12 | Fulfilled
CO[C@@H]1C=CCC(=O)N[C@@H](C)C(=O)OC[C@@H](NS(=O)(=O)c2ccc(C)cc2)[C@H](C)C=CCC(=O)OC[C@H]1C | Fulfilled
COC(=O)[C@H](C)NC(=O)CCC1CC(OC(=O)NCc2cccc3ccccc23)CC2(CCCC(COC(=O)NCc3cccc(C(F)(F)F)c3)O2)O1 (some centres not stated) | Fulfilled
COC(=O)[C@H](C)NC(=O)CCC1CC(OC(=O)NCCc2ccc(F)cc2)CC2(CCCC(COC(=O)NCC3CCCCC3)O2)O1 (some centres not stated) | Not fulfilled

Data request: Given C[C@@H]1CC[C@H]2C(=O)OC(Cc3ccccc3)CN2[C@H]1c1ccc(Br)cc1 (some centres not stated) , state whether its z-score is at least -2.
Data returned: Fulfilled

###

# Experiment: basal HepG2 mitochondrial membrane potential changes, profiling panel, cell-based, JC-1 fluorescence, 24 h, 100 nL compound (AID 1167); note: test concentration not given here
# Condition Description: higher = more signal
Please mark True if the recorded z-score is equal to or greater than -0.2, and False if it falls below.

These recorded examples may help you get a feel for the data.
CC(=O)OC[C@H]1O[C@H](CCON=C(C)C)C=C[C@@H]1OC(C)=O | False
CO[C@@H]1COC(=O)[C@@H]2CCCN2C(=O)[C@@H](C)COC(=O)CCC[C@H]1C | True
CC(C)=CCCC(C)=CCON=C1C[C@@H](O)[C@@H](O)[C@@H]2[C@@H]3C(=O)N(c4cccc(Oc5ccccc5)c4)C(=O)[C@@H]3CC[C@H]12 | False
C[C@H]1CC[C@@H](C(=O)O)N[C@@H]1c1cccc(N2CCCC2=O)c1 | True
COC(=O)[C@H](CCSC)NC(=O)CC=C[C@@H](C)CO | True
CCOC(=O)[C@H](CC(C)C)NC(=O)CCC1CC(OC(=O)NCc2ccc3c(c2)OCO3)CC2(CCCC(COC(=O)NCc3ccccc3)O2)O1 (stereo partly specified) | False

Data request: Given CCOC(=O)CCN1C(=O)[C@H]2[C@@H]3C(=CC[C@H]2C1=O)C(=O)[C@H]1O[C@H]1[C@H]3O , state whether its z-score is at least -0.2.
Data returned: False

Data request: Note, next up: O=C(NN=C1C[C@@H](O)[C@@H](O)[C@@H]2[C@@H]3C(=O)N(Cc4ccc5c(c4)OCO5)C(=O)[C@@H]3CC[C@@H]12)OCc1ccccc1
Data returned: True

Data request: Note, next up: CC(CCC(=O)OC[C@H]1O[C@H](C#Cc2ccccc2)C=C[C@@H]1Oc1ccc(C)cc1)=NO[C@H](C)c1cn([C@@H]2COC[C@H]2O)nn1
Data returned: False

Data request: Note, next up: CC(CCN1CCCCc2nc(C)c(C)cc21)=NO[C@H](C)c1cn([C@@H]2COC[C@H]2O)nn1
Data returned: True

Data request: Note, next up: COC(=O)[C@H](C)NC(=O)CCC1CC(OC(=O)NCc2cccc3ccccc23)CC2(CCCC(COC(=O)NCCc3ccccc3OC)O2)O1 (stereo partly specified)
Data returned: False

Data request: Note, next up: C[C@H]1C=CCC(=O)OC[C@H](C)C(=O)N2CCC[C@H]2C(=O)OC1
Data returned: True

Data request: Note, next up: CCOC(=O)CCN1C(=O)[C@H]2[C@H]3[C@H](O)[C@H](O)CC(=O)[C@@H]3CC[C@H]2C1=O
Data returned: False

Data request: Note, next up: CC(C)[C@@H](OCc1ccccc1)[C@H](C)CON=C1[C@H]2CCn3c(=O)n(-c4ccccc4)c(=O)n3[C@H]2[C@H](O)[C@@H]2O[C@H]12
Data returned: False

Data request: Note, next up: O=C(NN=C1C[C@@H](O)[C@@H](O)[C@@H]2[C@@H]3C(=O)N(c4ccc(F)cc4F)C(=O)[C@@H]3CC[C@H]12)OCc1ccccc1
Data returned: True

Data request: Note, next up: CC(CCC(=O)OC[C@H]1O[C@H](C#Cc2ccccc2)C=C[C@@H]1Oc1ccc(C)cc1)=NOC(C)CN1CCCCc2nc(C)c(C)cc21 (stereo partly specified)
Data returned: True

###

# Experiment: yeast growth modulation, basal conditions, primary screen, YJM789 clinical isolate, OD600, 24 h (AID 1089);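 note: growth of clinical yeast isolate S. cerevisiae YJM 789 seeded 1000 cells per well; test concentration not given here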
# Condition Description: S. cerevisiae YJM789 growth, higher = more signal, called active from +8 up or from −8 down
Please mark condition met if the recorded z-score is equal to or greater than -0.7, and condition not met if it falls below.

CC(C)[C@@H](OCc1ccccc1)[C@H](C)CON=C1[C@H]2CCn3c(=O)n(-c4ccccc4)c(=O)n3[C@H]2[C@H](O)[C@@H]2O[C@H]12 | condition not met
C[C@@H](c1ccccc1)N1C(=O)[C@H]2[C@H]3[C@H](O)[C@H](O)CC(=NNC(=O)OCc4ccccc4)[C@@H]3CC[C@H]2C1=O | condition met
CCOC(=O)NN=C1C[C@@H](O)[C@@H](O)[C@@H]2[C@@H]3C(=O)N(C[C@@H]4CCCO4)C(=O)[C@@H]3CC[C@H]12 | condition not met
CCOC(=O)CCN1C(=O)[C@H]2[C@H]3[C@H](O)[C@H](O)CC(=NNC(=O)OCC)[C@H]3CC[C@H]2C1=O | condition met
O=C1[C@H]2[C@H]3[C@H](O)[C@H](O)CC(=NO[C@@H]4O[C@H](CO)[C@@H](O)[C@H](O)[C@H]4O)[C@H]3CC[C@H]2C(=O)N1C[C@@H]1CCCO1 | condition met

Data request: Given COC(=O)C(C(=O)OC)C1CCCC(=O)C1 (configuration not stated) , state whether its z-score is at least -0.7.
Data returned: condition met

###

# Experiment: small-molecule microarray binders of probe aEGFR, primary screen, biochemical, biotinylated probe, 635/667 nm fluorescence (AID 1097);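 note: probe is a biotinylated anti-EGFR antibody binding compounds printed on slides; score combines fluorescence near 667 nm and signal to noise of each spot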
# Condition Description: higher = more signal
Please mark True if the recorded composite z-score is equal to or greater than -0.08, and False if it falls below.

These recorded examples may help you get a feel for the data.
CCOC(=O)CCN1C(=O)[C@H]2[C@H]3[C@H](O)[C@H](O)CC(=NNC(=O)OCC)[C@H]3CC[C@H]2C1=O | False
CC(C)=CCCC(C)=CCON=C1C[C@@H](O)[C@@H](O)[C@@H]2[C@@H]3C(=O)N(Cc4ccc5c(c4)OCO5)C(=O)[C@@H]3CC[C@@H]12 | True
CCCCOC(OCCCC)C(O)CSc1ccc2ccccc2c1 (stereo unspecified) | False
C[C@@H]1CC[C@H]2C(=O)OC(CN3C(=O)c4ccccc4C3=O)CN2[C@H]1c1ccc(Br)cc1 (stereo partly specified) | True

Data request: Given CC(=O)OC[C@H]1O[C@H](CC=NO[C@H](C)c2cn([C@@H]3COC[C@H]3O)nn2)C=C[C@@H]1OC(C)=O , state whether its composite z-score is at least -0.08.
Data returned: False

Data request: Note, next up: O=C1C[C@H](c2ccccc2)[C@H](c2ccc(Br)cc2)O1
Data returned: False

Data request: Note, next up: COc1ccc(O[C@H]2C=C[C@@H](c3ccccc3)O[C@@H]2CON=C2c3cc(OC)ccc3O[C@H](c3cccc(OC)c3)[C@H]2O)cc1
Data returned: False

Data request: Note, next up: O=C(NN=C1C[C@@H](O)[C@@H](O)[C@@H]2[C@@H]3C(=O)N(c4ccc(F)cc4F)C(=O)[C@@H]3CC[C@H]12)OCc1ccccc1
Data returned: True

Data request: Note, next up: CCOC(=O)[C@H](Cc1ccccc1)NC(=O)CCC1CC(OC(=O)NCc2cccc3ccccc23)CC2(CCCC(COC(=O)NCCc3ccc(Cl)cc3)O2)O1 (stereo partly specified)
Data returned: False

Data request: Note, next up: CCOC(=O)[C@H](Cc1ccccc1)NC(=O)CCC1CC(OC(=O)NCc2cccc3ccccc23)CC2(CCCC(COC(=O)NCCOc3ccccc3)O2)O1 (stereo partly specified)
Data returned: False

Data request: Note, next up: COc1ccc(OC[C@@H]2CC3[C@@H](c4ccc(Br)cc4)[C@H](C)CC[C@H]3C(=O)O2)cc1 (stereo partly specified)
Data returned: False

Data request: Note, next up: CC(C)CON=C1[C@H]2CCn3c(=O)n(C)c(=O)n3[C@H]2[C@H](O)[C@@H]2O[C@H]12
Data returned: True

Data request: Note, next up: O=C1[C@H]2CCn3c(=O)n(Cc4cc5c(cc4Cl)OCO5)c(=O)n3[C@H]2[C@H](O)[C@@H]2O[C@H]12
Data returned: False

Data request: Note, next up: COC(=O)CC=C[C@@H](C)[C@@H](C=NOC[C@@H](O)COCc1ccco1)OC
Data returned: False

Data request: Note, next up: CCOC(=O)CCN1C(=O)[C@H]2[C@H]3[C@H](O)[C@H](O)CC(=NOCC(C)C)[C@@H]3CC[C@H]2C1=O
Data returned: True

Data request: Note, next up: CON=C(C)CCN1CCCCc2nc(C)c(C)cc21
Data returned: True

Data request: Note, next up: CCN1C(=O)[C@H]2[C@H]3[C@H](O)[C@H](O)CC(=NOCC=C(C)CCC=C(C)C)[C@@H]3CC[C@H]2C1=O
Data returned: True

Data request: Note, next up: CCOC(=O)[C@H](CC(C)C)NC(=O)CCC1CC(OC(=O)NCc2ccc3c(c2)OCO3)CC2(CCCC(COC(=O)NCCOC)O2)O1 (stereo partly specified)
Data returned: True

Data request: Note, next up: COCCNC(=O)OCC1CCCC2(CC(OC(=O)NCc3cccc4ccccc34)CC(CCC(=O)N[C@@H](C)C(=O)OC)O2)O1 (stereo partly specified)
Data returned: False

Data request: Note, next up: COc1cccc([C@H]2Oc3ccc(OC)cc3C(=NO[C@@H](C)c3cc(-c4c(C)cc(C)cc4C)no3)[C@@H]2O)c1
Data returned: False

Data request: Note, next up: CCN1C(=O)[C@H]2[C@@H]3C(=CC[C@H]2C1=O)C(=O)[C@H]1O[C@H]1[C@H]3O
Data returned: True

Data request: Note, next up: CC(C)[C@@H](OCc1ccccc1)[C@H](C)CON=C1[C@H]2CCn3c(=O)n(-c4ccccc4)c(=O)n3[C@H]2[C@H](O)[C@@H]2O[C@H]12
Data returned: True
